Give yeast fitness for every item shown.
B1: tRNA (parent)
chain: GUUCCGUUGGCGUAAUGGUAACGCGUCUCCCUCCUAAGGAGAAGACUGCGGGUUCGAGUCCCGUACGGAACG

# Variants of: B1
# ASSAY INFO: yeast fitness relative to wild type (ratio to wild type); higher = fitter; tRNA-Arg(CCU), competitive growth, 37 C, YPD
This sample holds only a part of the variants without activity.

Consider the reported yeast fitness for these variants:
# MACROMOLECULE SEQUENCE, yeast fitness
rows = [
    ("GUUCCGAUGGCGUUCUGGUAACGCGUCUCCCCCCUAAGGAGAAGAUUGCGCGUUCGAGUCCCGUACGGAACG [U7A A14U A15C U32C C46U G51C]", "≤ 0.5"),
    ("GUUCCGAUGGCGUAAUGGUAACGCGUCUCCCGACUAAGGAGAAGACUGCGGGUUCGAGUCCGGUAUGGAACG [U7A U32G C33A C62G C66U]", "≤ 0.5"),
    ("GUUCCGUUGGCGUAAUGGUAACGCGUCUCCCUCCUAAGGAGAAGACUGCGGGUUCGAGUCUCGUACGAAACG [C61U G68A]", 0.711),
    ("GUUCCGUUGGCGUAAUGGUAACGCGUCUACCUCCUAAAGAGAAGACUGCGGGUCCGAGUCCCGUACGGUACG [C29A G38A U54C A69U]", "≤ 0.5"),
    ("GUUCUGUUGGCGUAAUGGUAUCGCGUCUCCCGCCUAAGGAGAAGACUGCGGGUUCGAGUCCCGUACGGAACG [C5U A21U U32G]", "≤ 0.5"),
]

I need yeast fitness for every entry listed below, if you could help.
1. GUUCCGUUGGCGUAAUGGUAACGUGUCUCCCUUGUAAGGUGAAGACUGCGGGUUCGAGUCCCGUACAGAACG [C24U C33U C34G A40U G67A]
2. GUUCCGUUGGCGUAAUGGUAAUGCGUCUCCCUCCUAAGGAGAAGACUGCGGGUUCGAGUCCCGUACGGACCG [C22U A70C]
3. GUUCCGUGGGCGUAACGGUAUAGCGUCGCCCUCCUAAGGAGAAGACUGCGGGUUCGAGUCCCGUACGGAACG [U8G U16C A21U C22A U28G]
4. GUUCCGUUGGCGUAAUGGUAACGCGUCUCCCUCCUAAGGAGAAGACUGCGGGUUCGCGUACCGUACGGAACG [A57C C60A]
5. GUUCCGUUGGCGUAAUGGUAACGCGUCUCCCUCCUAAGGAGAAGACUGCGGGUUGGAGACCCGUACGGAGCG [C55G U59A A70G]

1. 0.541
2. 0.859
3. ≤ 0.5
4. ≤ 0.5
5. 0.731

I need yeast fitness for every entry listed below, if you could help.
1. GUUCCGUUGGCGUAAUGGUAACGCGUAUUCCUCCUAAGGAGAAGACUACGGGUUCGAGUCCCGUACGCAACG [C27A C29U G48A G68C]
2. GUUCCGUUGGCGUAAUGGUAAUGCGUUUCCCUGCUAAGGAGAACACUGCGGGUUCGAGUCCCGUACGGAACG [C22U C27U C33G G44C]

1: ≤ 0.5; 2: ≤ 0.5
